# experimental.system: brain CCK receptor (Mus musculus)
# Construct: from tissue; host or cells: forebrain membranes of male CF-1 mice
# test.method.notes: CCK receptor binding, mouse brain membranes (125I-CCK-8 sulfate)
# condition.notes: mouse brain membranes; read-out: Brain IC50
In this section, each of the compounds is paired with its reported pIC50.
For clarity, pIC50 is expressed as the negative log10 of concentration in mol/L.

Known results for compounds:
>  <compound>
O=C1NN(C(=O)c2cc3ccccc3[nH]2)[C@@H](c2ccccc2)[C@@H]1c1ccccc1 (relative stereo) [Example 14]

>  <experimental.system>
brain CCK receptor (Mus musculus)

>  <pIC50>
5.59

$$$$
>  <compound>
O=C1NN(C(=O)NCc2ccc(Cl)cc2)[C@@H](c2ccccc2)[C@@H]1c1ccccc1 (relative stereo) [Example 100]

>  <experimental.system>
brain CCK receptor (Mus musculus)

>  <pIC50>
5.66

$$$$
>  <compound>
O=C1NN(C(=O)NCc2cccc(Cl)c2)[C@@H](c2ccccc2)[C@@H]1c1ccccc1 (relative stereo) [Example 99]

>  <experimental.system>
brain CCK receptor (Mus musculus)

>  <pIC50>
5.48

$$$$
>  <compound>
O=C1NN(C(=O)Nc2ccc(Br)cc2)[C@@H](c2ccccc2Cl)[C@@H]1c1ccccc1Cl (relative stereo) [Example 133]

>  <experimental.system>
brain CCK receptor (Mus musculus)

>  <pIC50>
8.22

$$$$
>  <compound>
CCc1ccc(NC(=O)N2NC(=O)[C@@H](c3ccccc3)[C@@H]2c2ccccc2)cc1 (relative stereo) [Example 26]

>  <experimental.system>
brain CCK receptor (Mus musculus)

>  <pIC50>
7.12

$$$$
>  <compound>
CN(C)c1ccc(NC(=O)N2NC(=O)[C@@H](c3ccccc3)[C@@H]2c2ccccc2)cc1 (relative stereo) [Example 2]

>  <experimental.system>
brain CCK receptor (Mus musculus)

>  <pIC50>
6.54

$$$$

Next compound, pIC50 to be filled in.
Looking for the measured pIC50 of O=C(O)COC1=NN(C(=O)Nc2ccc(Br)cc2)[C@@H](c2ccccc2)[C@@H]1c1ccccc1 (relative stereo) [Example 12 (O--)] , can you help?
6.47

---

# experimental.system: peripheral type CCK receptors in rat pancreas (Rattus norvegicus, UniProt P30551)
# Construct: Pancreas was obtained from male Sprague-Dawley rats; from tissue; host or cells: pancreas membranes of male Sprague-Dawley rats
# Sequence (P30551 1-444): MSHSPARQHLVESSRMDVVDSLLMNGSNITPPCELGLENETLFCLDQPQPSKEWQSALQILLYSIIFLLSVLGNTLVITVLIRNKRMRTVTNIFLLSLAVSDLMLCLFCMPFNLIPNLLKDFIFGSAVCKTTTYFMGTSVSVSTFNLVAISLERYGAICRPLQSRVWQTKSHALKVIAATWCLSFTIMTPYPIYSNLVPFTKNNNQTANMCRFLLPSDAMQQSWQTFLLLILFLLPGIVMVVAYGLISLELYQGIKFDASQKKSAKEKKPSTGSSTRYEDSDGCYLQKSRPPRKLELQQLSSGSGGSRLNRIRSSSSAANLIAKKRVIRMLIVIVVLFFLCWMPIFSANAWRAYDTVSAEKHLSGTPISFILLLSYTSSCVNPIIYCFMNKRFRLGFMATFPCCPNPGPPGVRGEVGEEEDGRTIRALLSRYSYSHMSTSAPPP
# test.method.notes: Binding to peripheral type CCK receptors in rat pancreas (3H-L-364,718)
# condition.notes: at 10 μM; read-out: Pancreas Percent Inhibition
Decision: inhibition at 10 µM compared against 40%; not below it gives label 1, below it gives label 0.

>  <molecule>
O=C1NN(C(=O)NCCc2ccccc2Cl)[C@@H](c2ccccc2)[C@@H]1c1ccccc1 (relative stereo)

>  <label.value>
label 1

$$$$
>  <molecule>
O=C(Nc1ccc(Cl)c(C(F)(F)F)c1)N1N[C@@H](c2ccccc2)[C@H](c2ccccc2)C1=O (relative stereo)

>  <label.value>
label 0

$$$$
>  <molecule>
O=C1NN(C(=O)Nc2ccc(-c3ccccc3)cc2)[C@@H](c2ccccc2)[C@@H]1c1ccccc1 (relative stereo)

>  <label.value>
label 1

$$$$

Now take the following molecule into account.
Has COc1ccc(NC(=O)N2NC(=O)[C@@H](c3ccccc3)[C@@H]2c2ccccc2)cc1 (relative stereo) a recorded inhibition at 10 µM greater than or equal to 40%?
label 0

---

# experimental.system: brain CCK receptor (Mus musculus, UniProt P56481)
# Construct: from tissue; host or cells: forebrain membranes of male CF-1 mice
# Sequence (P56481 whole entry): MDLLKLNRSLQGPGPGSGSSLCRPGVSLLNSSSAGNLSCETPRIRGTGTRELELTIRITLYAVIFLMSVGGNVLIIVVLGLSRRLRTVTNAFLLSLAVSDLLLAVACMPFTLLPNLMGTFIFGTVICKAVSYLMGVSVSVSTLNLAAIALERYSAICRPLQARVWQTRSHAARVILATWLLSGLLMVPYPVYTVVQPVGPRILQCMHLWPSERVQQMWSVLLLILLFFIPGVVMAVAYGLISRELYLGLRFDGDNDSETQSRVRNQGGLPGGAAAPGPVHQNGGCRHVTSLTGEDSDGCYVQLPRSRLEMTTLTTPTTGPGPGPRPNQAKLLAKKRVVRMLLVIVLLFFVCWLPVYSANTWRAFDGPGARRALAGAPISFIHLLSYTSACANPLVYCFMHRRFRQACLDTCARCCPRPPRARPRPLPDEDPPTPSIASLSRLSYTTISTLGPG
# test.method.notes: CCK receptor binding, mouse brain membranes (125I-CCK-8 sulfate)
# condition.notes: mouse brain membranes; read-out: Brain IC50
Note to self: IC50 under 500 nM means y, ties and anything higher get n.

Take a look at these entries with their results.
>  <compound>
O=C1NN(C(=O)Nc2cccc(Cl)c2Cl)[C@H](c2ccccc2)[C@H]1c1ccccc1 (relative stereo) [Example 54]

>  <experimental.system>
brain CCK receptor (Mus musculus, UniProt P56481)

>  <label.value>
n

$$$$
>  <compound>
O=C1NN(C(=O)NCc2ccc(Cl)c(Cl)c2)[C@@H](c2ccccc2)[C@@H]1c1ccccc1 (relative stereo) [Example 7]

>  <experimental.system>
brain CCK receptor (Mus musculus, UniProt P56481)

>  <label.value>
n

$$$$
>  <compound>
O=C1NN(C(=O)Oc2ccc([N+](=O)[O-])cc2)[C@@H](c2ccccc2)[C@@H]1c1ccccc1 (relative stereo) [Example 80]

>  <experimental.system>
brain CCK receptor (Mus musculus, UniProt P56481)

>  <label.value>
n

$$$$
>  <compound>
O=C1NN(C(=O)Nc2ccc(F)cc2)[C@@H](c2ccccc2)[C@@H]1c1ccccc1 (relative stereo) [Example 17]

>  <experimental.system>
brain CCK receptor (Mus musculus, UniProt P56481)

>  <label.value>
n

$$$$
>  <compound>
O=C1NN(C(=O)Nc2ccc(Cl)c([N+](=O)[O-])c2)[C@H](c2ccccc2)[C@H]1c1ccccc1 (relative stereo) [Example 48]

>  <experimental.system>
brain CCK receptor (Mus musculus, UniProt P56481)

>  <label.value>
y

$$$$

Record O=C1NN(C(=O)Nc2ccc(Cl)cc2Cl)[C@H](c2ccccc2)[C@H]1c1ccccc1 (relative stereo) [Example 55] : is its IC50 strictly below 500 nM?
n

Regarding O=C1NN(C(=O)Nc2ccc(Br)cc2)[C@@H](c2cccc(Cl)c2Cl)[C@@H]1c1ccccc1 (relative stereo) [Example 116] , kindly confirm whether its IC50 is beneath 500 nM.
y

Would you kindly verify if IC50 of CSc1ccc(NC(=O)N2NC(=O)[C@@H](c3ccccc3)[C@@H]2c2ccccc2)cc1 (relative stereo) [Example 38] is strictly less than 500 nM?
y

Item O=C1NN(C(=O)Nc2cccc(C(F)(F)F)c2)[C@@H](c2ccccc2)[C@@H]1c1ccccc1 (relative stereo) [Example 39] : IC50 beneath 500 nM, strictly?
y

Below 500 nM on IC50? Entry C[C@@H](NC(=O)N1NC(=O)C(c2ccccc2)C1c1ccccc1)c1ccccc1 (stereo partly drawn) [Example 102]
n

Threshold test, IC50 < 500 nM: O=C1NN(C(=O)Nc2ccc3c(c2)CCC3)[C@H](c2ccccc2)[C@H]1c1ccccc1 (relative stereo) [Example 49]
y

# TODO verify IC50 < 500 nM strictly for this compound: O=C1NN(C(=O)Nc2ccc(Cl)c(Cl)c2)[C@H](c2ccccc2)[C@H]1c1ccccc1 (relative stereo) [Example 46]
y

Item O=C(O)CN1C(=O)[C@@H](c2ccccc2)[C@H](c2ccccc2)N1C(=O)Nc1ccc(Br)cc1 (relative stereo) [Example 12 (N--)] : IC50 beneath 500 nM, strictly?
n

Answer whether the compound O=C1NN(C(=S)Nc2cccc(Cl)c2Cl)[C@H](c2ccccc2)[C@H]1c1ccccc1 (relative stereo) [Example 64] has IC50 strictly less than 500 nM
n

---

Listing of entries alongside the reported IC50.
# experimental.system: gastrin receptor (Cavia porcellus)
# Construct: Guinea pig stomach fundus was obtained from male Hartley guinea pigs; from tissue; host or cells: stomach fundus mucosal membranes of male Hartley guinea pigs
# Sequence (H0VZC5 1-426): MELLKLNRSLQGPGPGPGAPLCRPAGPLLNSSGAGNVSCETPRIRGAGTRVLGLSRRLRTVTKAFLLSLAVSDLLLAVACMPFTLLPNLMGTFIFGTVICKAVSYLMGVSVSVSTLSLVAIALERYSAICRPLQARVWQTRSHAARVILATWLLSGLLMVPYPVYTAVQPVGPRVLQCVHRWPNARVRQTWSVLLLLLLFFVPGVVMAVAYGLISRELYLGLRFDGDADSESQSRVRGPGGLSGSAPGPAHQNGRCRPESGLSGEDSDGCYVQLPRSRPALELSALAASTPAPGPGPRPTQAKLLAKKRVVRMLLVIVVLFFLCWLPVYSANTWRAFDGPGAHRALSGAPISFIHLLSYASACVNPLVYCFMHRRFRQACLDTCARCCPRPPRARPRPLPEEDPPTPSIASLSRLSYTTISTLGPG
# test.method.notes: Gastrin binding to guinea pig stomach mucosal membranes (125I-gastrin I)
# condition.notes: guinea pig stomach mucosal membranes; read-out: Gastrin IC50
Output spec: scalar in nM, unitless text.

Would you please look over these solved cases?
>  <compound>
O=C1NN(C(=O)Nc2ccc(Br)cc2)[C@@H](c2ccccc2Cl)[C@@H]1c1ccccc1Cl (relative stereo)

>  <experimental.system>
gastrin receptor (Cavia porcellus)

>  <IC50 (nM)>
25

$$$$
>  <compound>
CSc1ccc(NC(=O)N2NC(=O)[C@@H](c3ccccc3)[C@@H]2c2ccccc2)cc1 (relative stereo)

>  <experimental.system>
gastrin receptor (Cavia porcellus)

>  <IC50 (nM)>
240

$$$$
>  <compound>
O=C1NN(C(=O)Nc2ccc(Br)cc2)[C@@H](c2ccccc2Cl)[C@H]1c1ccccc1Cl (relative stereo) [Example 133A]

>  <experimental.system>
gastrin receptor (Cavia porcellus)

>  <IC50 (nM)>
1500

$$$$

Continue with the compound presented below.
So what's the measured IC50 for this one? O=C1NN(C(=O)Nc2ccc(Br)cc2)[C@@H](c2ccccc2)[C@@H]1c1ccccc1 (relative stereo)
490
